experimental_details: Metabolic stability in rat plasma assessed as parent compound remaining at 10 uM measured after 30 mins
Format: ADME, cell-free
stated_conditions: read-out: Stabilty
property_label: remaining at 0.5 h, 10 µM

Q: Specify reported remaining at 0.5 h, 10 µM for the compound shown: CN(C)C(=O)NCCCN(C)C1=Nc2ccccc2C(CC(=O)NCc2ccc(F)cc2)N1c1ccc(C2CCCCC2)cc1 (stereo unspecified)
A: 49.4%

Reference source: ChEMBL document CHEMBL4715696
